Each entry below carries its reported Mean % WT Binding.
tgt: human CD33 variant P48N (human, UniProt P20138 18-364)
Sequence (P20138 18-364 P48N limits assumed): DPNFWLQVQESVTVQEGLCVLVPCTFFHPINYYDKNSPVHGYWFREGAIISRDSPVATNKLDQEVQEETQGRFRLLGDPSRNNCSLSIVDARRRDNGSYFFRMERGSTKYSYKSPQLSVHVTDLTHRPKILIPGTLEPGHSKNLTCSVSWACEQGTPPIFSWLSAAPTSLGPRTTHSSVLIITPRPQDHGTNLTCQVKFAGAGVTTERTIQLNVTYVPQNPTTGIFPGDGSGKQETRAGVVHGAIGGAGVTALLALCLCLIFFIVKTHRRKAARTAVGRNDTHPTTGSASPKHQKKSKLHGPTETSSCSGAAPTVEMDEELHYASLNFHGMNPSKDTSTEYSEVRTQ
protocol_description: flow cytometry, IgG on cells expressing the mutant

Example results:
Refmab #1 (antibody, human IgG1, V domains shown, Tested in IgG format; human IgG1 (Absolute Antibody hP67.6, Cat. No. Ab00283-10.0); also called hP67.6) VH: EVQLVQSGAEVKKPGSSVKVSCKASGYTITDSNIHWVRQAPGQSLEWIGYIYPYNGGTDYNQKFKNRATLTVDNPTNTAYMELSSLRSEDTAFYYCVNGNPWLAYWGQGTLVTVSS VL: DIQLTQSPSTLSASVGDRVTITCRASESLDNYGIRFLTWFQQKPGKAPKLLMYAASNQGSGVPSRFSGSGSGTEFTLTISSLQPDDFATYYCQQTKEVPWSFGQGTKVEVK ... 100 % of WT
Refmab #4 (antibody, human IgG1, V domains shown, Tested in IgG format; human IgG1 Fc silent (PG-LALA)) VH: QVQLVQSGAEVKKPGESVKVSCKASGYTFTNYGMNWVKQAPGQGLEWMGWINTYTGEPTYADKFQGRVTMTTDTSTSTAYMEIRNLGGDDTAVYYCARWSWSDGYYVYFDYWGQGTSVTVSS VL: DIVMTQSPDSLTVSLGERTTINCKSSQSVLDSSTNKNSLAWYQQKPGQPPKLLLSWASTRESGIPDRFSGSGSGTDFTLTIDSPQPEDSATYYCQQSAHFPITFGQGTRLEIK ... 3.8 % of WT
Refmab #3 (antibody, human IgG1, V domains shown, Tested in IgG format; human IgG1 Fc silent (PG-LALA)) VH: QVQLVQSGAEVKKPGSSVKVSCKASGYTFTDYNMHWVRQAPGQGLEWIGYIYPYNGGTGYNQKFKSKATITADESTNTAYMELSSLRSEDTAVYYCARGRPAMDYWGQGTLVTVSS VL: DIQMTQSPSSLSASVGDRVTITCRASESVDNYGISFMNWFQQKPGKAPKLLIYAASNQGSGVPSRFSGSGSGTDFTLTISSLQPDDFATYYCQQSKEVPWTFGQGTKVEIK ... 98.8 % of WT

Complete the entry with Mean % WT Binding for Refmab #2 (antibody, human IgG1, V domains shown, Tested in IgG format; human IgG1 Fc silent (PG-LALA)) VH: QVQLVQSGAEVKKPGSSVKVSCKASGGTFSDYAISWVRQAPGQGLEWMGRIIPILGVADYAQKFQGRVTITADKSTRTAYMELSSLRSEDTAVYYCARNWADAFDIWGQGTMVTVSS VL: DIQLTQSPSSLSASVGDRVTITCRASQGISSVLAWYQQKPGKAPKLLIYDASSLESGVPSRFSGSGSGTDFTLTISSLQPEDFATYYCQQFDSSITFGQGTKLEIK 95.2 % of WT

The reported numbers originate from patent US20260242735A1.
